Each entry below lists one item and its recorded INHIBITION value.
# System: Plasmodium berghei
# methodSummary: Screen against P. berghei liver stage (PbLuc), transformed with Luciferase, at 10uM
# Assay type: functional, HepG2
# testParameters: tested at 10 uM
The whole screen tested about 69,000 compounds, of which about 8,600 (12%) showed an effect of 50% or more. The sample holds strong results, similar compounds and a random draw of the others, so the mix is not that of the screen.
Supply the numeric figure in %, leaving out any unit text.

[
  {
    "compound": "COCCN1C[C@H](OCc2csc(C)n2)[C@H]2COC[C@H]21",
    "INHIBITION (%)": -41.4
  },
  {
    "compound": "Cc1csc(N2CCN(C(=O)c3ccc(C)s3)CC2)n1",
    "INHIBITION (%)": 2.3
  },
  {
    "compound": "Cc1nc(C2CCN(C(=O)c3cnc(N(C)C)nc3)CC2)c2sccn12",
    "INHIBITION (%)": -4.82
  },
  {
    "compound": "Cc1cc(NC(=O)CN2CCn3c(nnc3C(C)C)C2)n(C)n1",
    "INHIBITION (%)": 22.2
  }
]

Ask: Using the record for "c1ccc(CCc2n[nH]c(CCN3CCCCC3)n2)cc1" , report its INHIBITION.
Result: 38.5

Ask: Here is the next compound: "Cc1nn(C)c2ncnc(NCc3nncn3C3CCCCC3)c12"
Result: -58.1

Ask: Here is the next compound: Cc1nccn1CCC1CCCCN1Cc1ccc2c(c1)OCCO2 (configuration not stated)
Result: 51.3

Ask: Here is the next compound: CS(=O)(=O)c1cncnc1C1CCCNC1 (configuration not stated)
Result: 20.4

Ask: Here is the next compound: "CCCc1nnc(NCCc2noc(C3CCC3)n2)o1"
Result: 12.7

Ask: Here is the next compound: "O=C(c1cccc(F)c1)N(CCCO)S(=O)(=O)c1cccs1"
Result: -38.8

Ask: Here is the next compound: Cc1c[nH]c(CN2CCCCC2CCN(C)C)c(C)c1=O (configuration not stated)
Result: 38.8

Ask: Here is the next compound: "COCCN1C[C@@H]2CN(Cc3cccc(C)n3)C[C@@H]2C1=O"
Result: 14.1

Ask: Here is the next compound: "c1cc(C2CCN(Cc3nc(-c4ccsc4)no3)CC2)[nH]n1"
Result: 8.12

Ask: Here is the next compound: "CC(C)OC(=O)N1C[C@@H]2CC[C@H]1CN(C(=O)c1ccccc1)C2"
Result: -63.6

Ask: Here is the next compound: "c1cnn(C2CN(Cc3nc(-c4ccsc4)no3)C2)c1"
Result: 17

---

# Test system: Plasmodium berghei
# methodSummary: Screen against P. berghei liver stage (PbLuc), transformed with Luciferase, at 10uM
# Type: functional, HepG2
# testParameters: tested at 10 uM
Out of some 69,000 compounds screened, about 8,600 (12%) showed an effect of 50% or more. What follows is part of a selection rich in strong results, with near analogues and random picks from the rest.
Each entry below lists one item and its recorded INHIBITION value.
Supply the numeric figure in %, leaving out any unit text.

[
  {
    "molecule": "NCC(=O)N1CCC(c2cccc(Oc3ccccc3)n2)CC1",
    "INHIBITION / %": 75.9
  },
  {
    "molecule": "O=C(CSC1=NS(=O)(=O)c2cc(F)ccc2N1)Nc1cccc(Cl)c1",
    "INHIBITION / %": 16.6
  },
  {
    "molecule": "Cc1ccc2nc(C(=O)N3CCCC[C@]4(C)NC(=O)CCC[C@H]34)cn2c1",
    "INHIBITION / %": -56.2
  }
]

Ask: Using the record for COc1ccccc1C1=NOC(CC2(C(=O)NC(C)C)CCOCC2)C1 (centres undefined) , report its INHIBITION.
Result: -29.8

---

# Test system: Plasmodium berghei
# methodSummary: Screen against P. berghei liver stage (PbLuc), transformed with Luciferase, at 10uM
# Type: functional, HepG2
# testParameters: tested at 10 uM
Screen size: about 69,000 compounds; about 8,600 (12%) showed an effect of 50% or more. Only a selection was taken, and strong results are over-represented in it overall.
Each entry below lists one item and its recorded INHIBITION value.
Supply the numeric figure in %, leaving out any unit text.

Ask: Using the record for COc1cc(CNC(C)c2nnc3n2CCC3)cc(OC)c1 (configuration not stated) , report its INHIBITION.
Result: 37.8

---

# System: Plasmodium berghei
# methodSummary: Screen against P. berghei liver stage (PbLuc), transformed with Luciferase, at 10uM
# Format: functional, HepG2
# testParameters: tested at 10 uM
The whole screen tested about 69,000 compounds, of which about 8,600 (12%) showed an effect of 50% or more. The entries come from a sample that favours strong results as a whole.
Label class 1 when INHIBITION is strictly below 40%; at or above that, label class 0.

Ask: INHIBITION under 40%? Item: "COc1ccc(OC)c(-c2nc(CN(C)Cc3nncn3C)c(C)o2)c1"
Result: class 0

Ask: Here is the next compound: "CC(=O)Nc1nc2c(s1)CN(CC(=O)Nc1ccc(C)c(Cl)c1)CC2"
Result: class 1

Ask: Here is the next compound: "CCn1cnnc1CN(C)Cc1nc(-c2cc(OC)ccc2F)oc1C"
Result: class 0

Ask: Here is the next compound: "Cc1ccc(S(=O)(=O)N2CC[C@@H]3C[C@H](NC(=O)c4[nH]ncc4Br)[C@@H]32)cc1"
Result: class 1

Ask: Here is the next compound: "COCCCNC(=O)c1ccccc1S(C)(=O)=O"
Result: class 1

---

Each entry below lists one item and its recorded INHIBITION value.
# Test system: Plasmodium berghei
# methodSummary: Screen against P. berghei liver stage (PbLuc), transformed with Luciferase, at 10uM
# Type: functional, HepG2
# testParameters: tested at 10 uM
Screen size: about 69,000 compounds; about 8,600 (12%) showed an effect of 50% or more. Only a selection was taken, and strong results are over-represented in it overall.
Supply the numeric figure in %, leaving out any unit text.

Examples from the recorded data:
[
  {
    "compound": "COc1ccc(CN2CCC3(CC2)NC(=O)CC3c2ccncc2)cc1 (stereo not drawn)",
    "testReadout": "INHIBITION",
    "measuredResult": 30.7
  },
  {
    "compound": "Fc1cnc(N2CCO[C@H]3CN(CC4CCCCC4)C[C@H]32)nc1",
    "testReadout": "INHIBITION",
    "measuredResult": 30.3
  }
]

Please find the next compound below.
Ask: Using the record for "CCNC(=O)c1ccc(NC(=O)N(C)Cc2cc(C)on2)c(C)c1" , report its INHIBITION.
Result: 29.6

---

# Test system: Plasmodium berghei
# methodSummary: Screen against P. berghei liver stage (PbLuc), transformed with Luciferase, at 10uM
# Assay type: functional, HepG2
# testParameters: tested at 10 uM
About 8,600 (12%) of roughly 69,000 compounds showed an effect of 50% or more. This is one part of a sample in which strong results are shown more often than they occur.
testReadout: INHIBITION (%)
Supply the numeric figure in %, leaving out any unit text.

Examples from the recorded data:
[
  {
    "cpdSmiles": "O=C(c1cscn1)N1C[C@@H](Oc2cccnc2)[C@H]2OCCC[C@H]21",
    "unitsLabel": "%",
    "INHIBITION": 2.58
  },
  {
    "cpdSmiles": "CCc1ccc(CN2CCC3(CC2)CNC(=O)CO3)o1",
    "unitsLabel": "%",
    "INHIBITION": 33.7
  }
]

Please find the next compound below.
Ask: Fill in the recorded INHIBITION for this compound, with Plasmodium berghei as test system: "COCCN(Cc1cccc(C#N)c1)Cc1nc(C)no1"
Result: 41.2

---

# Test system: Plasmodium berghei
# methodSummary: Screen against P. berghei liver stage (PbLuc), transformed with Luciferase, at 10uM
# Assay type: functional, HepG2
# testParameters: tested at 10 uM
About 8,600 (12%) of roughly 69,000 compounds showed an effect of 50% or more. Only a selection was taken, and strong results are over-represented in it overall.
Each entry below lists one item and its recorded INHIBITION value.
Supply the numeric figure in %, leaving out any unit text.

Examples from the recorded data:
[
  {
    "compound": "Cc1ccc2c(c1)C(NC1CC1)CC21CCNCC1 (stereo not drawn)",
    "unitsLabel": "%",
    "measuredResult": 42.1
  },
  {
    "compound": "COc1ccc2c(c1)C1(CCNCC1)CC2NC1CC1 (stereo not drawn)",
    "unitsLabel": "%",
    "measuredResult": 94.6
  },
  {
    "compound": "CN1CC2(CCN(Cc3ncc[nH]3)CC2)CC1=O",
    "unitsLabel": "%",
    "measuredResult": 53.7
  },
  {
    "compound": "O=C(CC1CCCC1)N1CCC(c2cc3ncccc3c(O)n2)CC1",
    "unitsLabel": "%",
    "measuredResult": -2.11
  }
]

Ask: Using the record for Cn1ncc2c1CN(Cc1ccccc1F)CC2COCC1CC1 (stereo not drawn) , report its INHIBITION.
Result: 49.3

Ask: Here is the next compound: CCN(CC1CCOC1)C(=O)c1ccccc1S(C)(=O)=O (stereo not drawn)
Result: 45.7

Ask: Here is the next compound: COCC1CN(CCOc2ccc(Cl)cc2)Cc2c1cnn2C (stereo not drawn)
Result: 53.9

Ask: Here is the next compound: "CCc1nc(CN2CCN(c3ncnc4cc(F)ccc34)CC2)no1"
Result: 91.8

Ask: Here is the next compound: "Cc1cccc(CN2CCC3(CC2)CC(Oc2cccnc2)C3)n1"
Result: 0.923

Ask: Here is the next compound: COc1ccc(CN2CCC3(CC2)CC(c2cccnc2)CO3)cc1 (stereo not drawn)
Result: 15.4

Value source: ChEMBL document CHEMBL4513216
